Data credit: ChEMBL document CHEMBL1149634

System: Enterococcus faecalis
assay_text: Antibacterial activity against Enterococcus faecalis ATCC 29212 after 24 hrs by broth microdilution test
Assay type: functional
stated_conditions: ATCC 29212, 24 h
quantity_name: MIC (µg/mL)
One number for each entry, in µg/mL.

* Cc1ccc2oc(=O)n(Cc3n[nH]c(=S)n3-c3ccccc3)c2c1 | 256

Parameter requested: MIC. Apply to each item below.
1. Cc1ccc2oc(=O)n(CC(=O)NNC(=S)Nc3ccccc3)c2c1
2. CNc1nnc(Cn2c(=O)oc3ccc(C)cc32)s1
3. Cc1ccc2oc(=O)n(CC(=O)NN)c2c1
4. COc1ccc(/C=N/NC(=O)Cn2c(=O)oc3ccc(C)cc32)cc1
5. CNC(=S)NNC(=O)Cn1c(=O)oc2ccc(C)cc21
6. Cc1ccc(/C=N/NC(=O)Cn2c(=O)oc3ccc(C)cc32)cc1
7. CCNC(=S)NNC(=O)Cn1c(=O)oc2ccc(C)cc21

Output:
1. 512
2. 512
3. 512
4. 128
5. 256
6. 256
7. 512

Parameter requested: MIC. Apply to each item below.
1. Cc1ccc2oc(=O)n(CC(=O)N/N=C/c3ccccc3)c2c1
2. CCCNC(=S)NNC(=O)Cn1c(=O)oc2ccc(C)cc21

Output:
1. 512
2. 512

Task: Observed MIC on Enterococcus faecalis for CCn1c(Cn2c(=O)oc3ccc(C)cc32)n[nH]c1=S , please.
Output: 512
